These measurements were taken from the RNAGym collection of RNA variant scans (doi:10.1126/science.aae0568).

Kindly state yeast fitness for each of the entries shown.
B1: tRNA (parent)
chain: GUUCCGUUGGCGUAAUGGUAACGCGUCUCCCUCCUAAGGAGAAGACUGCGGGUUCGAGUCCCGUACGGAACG

# Variants of: B1
# TEST_DETAILS: yeast fitness relative to wild type (ratio to wild type); higher = fitter; tRNA-Arg(CCU), competitive growth, 37 C, YPD
Fewer inactive variants are shown than the library holds.
One number for each entry.

Use the examples below as a reference point.
* GUUCCGAUGGCGUAAUGGUAACGCGUCUACCUCCUAAGGAGAAGACCGCGGGUUCGAAUCGCGUACGGAUCG | 0.588
* GUUCCGUUGGCGUAAUGGUAACGCGUCUCCCUCCUAAGGAGAAGACUGCGGGUUCGAGUCACGUACCGAACG | 0.664
* GUUCCGUUGGCGUAAUGGUAACACGUUUCCCUCCUAAGGAGAAGACUGCGGGUUCGAGUGCCGUACAGAACG | 0.549
* GUUCCGUUGGCGUAAUGGUAACGCGUCUCCCUCCUAAGGAGAAGACUGCGGGUUCGUGUCCCGUACGGAUCG | 0.69
* GUUCUGUUGGCGUAAUGGUAACGCGUCUCCCUCCUAAGGAGAAAACUGCGGGUUCGAGUCCCGGACGGAACG | 0.532

Dear colleague, could you send me yeast fitness for each of the items below? Thanks.
1. GUUCCGUUGGCGUAAUGGUAACGCCUCUCCCUCCUAAGGAGGAGACUGCGGGUUCGAGUCCCGUACGAAACG
2. GUUCCCUUGGCGUAAUGGUAAGGCGUCUCCCUCCUAUGGAGAGGACUGCGGGUUCGAGUCCGGUACGGAACG
3. GUUCCGUUGGCGUAGUAGUAACGCGUCUCCCUCCUAAGGAGAAGACUGCGGGUUCGAGUCCCGUACGGCACG
4. GUUCCGUUGGCGUAAUCGUAACGCGUCUUCCUCCUACGGAGAAGACUGCGGGUUCGAGUCCCGUCCGGAACG

1: 0.621; 2: 0.509; 3: 0.586; 4: 0.555
